- assayedTarget: RUNX1 (UniProt Q01196)
- Sequence (Q01196 whole entry): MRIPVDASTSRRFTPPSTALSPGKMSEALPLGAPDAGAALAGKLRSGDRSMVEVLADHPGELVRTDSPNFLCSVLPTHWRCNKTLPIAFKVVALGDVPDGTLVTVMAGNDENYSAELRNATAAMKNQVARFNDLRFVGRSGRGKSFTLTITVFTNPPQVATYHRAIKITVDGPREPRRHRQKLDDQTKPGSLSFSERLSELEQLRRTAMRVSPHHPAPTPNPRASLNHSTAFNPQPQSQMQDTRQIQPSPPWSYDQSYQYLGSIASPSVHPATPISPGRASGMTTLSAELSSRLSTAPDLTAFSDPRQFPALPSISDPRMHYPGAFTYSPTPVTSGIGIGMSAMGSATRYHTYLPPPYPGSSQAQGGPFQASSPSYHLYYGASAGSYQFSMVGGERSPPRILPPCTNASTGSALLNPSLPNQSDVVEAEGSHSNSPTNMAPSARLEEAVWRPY
- experiment: RUNX1 binding intensity (PBM fluorescence), RUNX1 alone (arbitrary fluorescence units); higher = stronger binding;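 note: Full-length recombinant human RUNX1 bound to double-stranded 36-bp genomic probes on a high-density microarray, scored as Alexa488 fluorescence per spot via anti-RUNX1 antibody, median of four replicate spots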
- conditionNotes: RUNX1 concentration 2 nM; ETS1 concentration 0 nM
Field: RUNX1 binding intensity. Provide a value for each of the sequences that follow.
One number for each entry.

residueString	assayedTarget	RUNX1 binding intensity
ATCTTGGCCCATATCCTGTGGTGTTCTGCTAGAGGT	RUNX1 (UniProt Q01196)	791
TCTTGAGGGTCAGGATGTGGTGAGGCCAGAGAAGGC	RUNX1 (UniProt Q01196)	808
TCAGGGGTGGGAGGAAGTGGTTAGGATCAGCCTGGG	RUNX1 (UniProt Q01196)	776

Provide RUNX1 binding intensity for all items below, preserving their order.
1. AGACTCCATCCGCCATGTTGGATGCCGCAGATTCGC
2. CCAGGCGGAAGCGGCCGGGAGTAGCGCTGCGGTTGG

[out]
1. 813
2. 817
